- ASSAY SYSTEM: Progesterone receptor (Homo sapiens)
- PROTOCOL: qHTS assay to identify small molecule antagonists of the progesterone receptor (PR) signaling pathway (AID 1346795)
- RUN CONDITIONS: PR-UAS-bla HEK293T, beta-lactamase FRET ratio, 16 h; series mostly up to 92.4 µM
Inconclusive results are not listed. Calls of active or inactive are those of the source. The call rests on the fitted dose curve; in most records, active means well fitted inhibition curve with a large enough effect in the signal ratio in the repeat runs (not every such curve was filed as active); inconclusive means weak or mixed curves; inactive means flat fitted curve, though single readings scatter; the % refers to the signal ratio.
Pick one: YES (active), NO (inactive)

Example entries and their recorded answers appear below.
- COMPOUND: "O=P(O)(Oc1ccccc1)Oc1ccccc1"
  CAT: "NO"
- COMPOUND: "CCOC(=O)CP(=O)(OCC)OCC"
  CAT: "NO"
- COMPOUND: "CCc1cc2c(s1)-n1c(C)nnc1CN=C2c1ccccc1Cl"
  CAT: "NO"
- COMPOUND: "Nc1ccccc1Cl"
  CAT: "NO"
- COMPOUND: "Cc1coc2c1CCC(C)C2 (configuration not stated)"
  CAT: "NO"

q: Assay outcome for CCS(=O)(=O)C(C)(C)S(=O)(=O)CC : what was it?
a: NO

q: Cool, now COc1ccc(C(=O)N2CCCC2=O)cc1
a: NO

q: Cool, now Cc1nnc2n1-c1sc(CCC(=O)N3CCOCC3)cc1C(c1ccccc1Cl)=NC2
a: NO

q: Cool, now ClCCOCOCCCl
a: NO

q: Cool, now C#CCN1C(=O)COc2cc(F)c(N3C(=O)C4=C(CCCC4)C3=O)cc21
a: NO

Every entry's value here was drawn from PubChem BioAssay (Tox21).
